Just for reference, patent US11427605B2 is where these values come from.

TEST_DESCRIPTION: Quantitative solubility testing, set of 24 solvents (HPLC)
Assay type: physicochemical
STUDY_CONDITIONS: chloroform, 20 °C, organic solvent or mixture, thermodynamic from solid, sample dissolved, no solids harvested
MEASURED_ATTRIBUTE: solubility at 24 h

Need solubility at 24 h, item `COc1cc(N2CCC(N3CCN(C)CC3)CC2)ccc1Nc1ncc(Cl)c(Nc2ccccc2P(C)(C)=O)n1`
> 182 mg/mL

----------
TEST_DESCRIPTION: physchem
STUDY_CONDITIONS: pH 3.6, aqueous buffer, thermodynamic from solid
MEASURED_ATTRIBUTE: solubility (mg/mL)
Express the result in mg/mL but write the number alone.

Need solubility, item COc1cc(N2CCC(N3CCN(C)CC3)CC2)ccc1Nc1ncc(Cl)c(Nc2ccccc2P(C)(C)=O)n1 [Form A, brigatinib]
173

----------
TEST_DESCRIPTION: physchem
STUDY_CONDITIONS: 37 °C, pH 4.5, aqueous buffer, thermodynamic from solid, Solub
MEASURED_ATTRIBUTE: solubility at 24 h (mg/mL)
Express the result in mg/mL but write the number alone.

Need solubility at 24 h, item COc1cc(N2CCC(N3CCN(C)CC3)CC2)ccc1Nc1ncc(Cl)c(Nc2ccccc2P(C)(C)=O)n1 [Form A, brigatinib]
26

----------
TEST_DESCRIPTION: physchem
STUDY_CONDITIONS: 37 °C, pH 1, simulated gastric fluid, thermodynamic from solid, Solub
MEASURED_ATTRIBUTE: solubility at 24 h (mg/mL)
Express the result in mg/mL but write the number alone.

Need solubility at 24 h, item COc1cc(N2CCC(N3CCN(C)CC3)CC2)ccc1Nc1ncc(Cl)c(Nc2ccccc2P(C)(C)=O)n1 [Form A, brigatinib]
70.6

----------
TEST_DESCRIPTION: Freeze-drying feasibility study
Type: physicochemical
STUDY_CONDITIONS: organic solvent or mixture, thermodynamic from solid; 2,2,2-trifluoroethanol/water (80:20); data obtained from freeze drying experiment
MEASURED_ATTRIBUTE: solubility

Need solubility, item `COc1cc(N2CCC(N3CCN(C)CC3)CC2)ccc1Nc1ncc(Cl)c(Nc2ccccc2P(C)(C)=O)n1`
> 159 mg/mL

----------
TEST_DESCRIPTION: Quantitative solubility testing, set of 24 solvents (HPLC)
Format: physicochemical
STUDY_CONDITIONS: 2-butanone, 20 °C, organic solvent or mixture, thermodynamic from solid
MEASURED_ATTRIBUTE: solubility at 24 h
Answer format: number, then unit.

Need solubility at 24 h, item `COc1cc(N2CCC(N3CCN(C)CC3)CC2)ccc1Nc1ncc(Cl)c(Nc2ccccc2P(C)(C)=O)n1`
1110 µg/mL

----------
TEST_DESCRIPTION: physchem
STUDY_CONDITIONS: 25 °C, pH 1, simulated gastric fluid, thermodynamic from solid, Solub
MEASURED_ATTRIBUTE: solubility at 24 h (mg/mL)
Express the result in mg/mL but write the number alone.

Need solubility at 24 h, item COc1cc(N2CCC(N3CCN(C)CC3)CC2)ccc1Nc1ncc(Cl)c(Nc2ccccc2P(C)(C)=O)n1 [Form A, brigatinib]
60.4

----------
TEST_DESCRIPTION: Quantitative solubility testing, set of 24 solvents (HPLC)
Assay type: physicochemical
STUDY_CONDITIONS: butyl acetate, 20 °C, organic solvent or mixture, thermodynamic from solid
MEASURED_ATTRIBUTE: solubility at 24 h (µg/mL)
Express the result in µg/mL but write the number alone.

Need solubility at 24 h, item `COc1cc(N2CCC(N3CCN(C)CC3)CC2)ccc1Nc1ncc(Cl)c(Nc2ccccc2P(C)(C)=O)n1`
320
